# Test system: Plasma
# method_description: Plasma concentration in po dosed human
# Format: ADME, organism-based
# assay_conditions: in vivo
measurement_name: concentration

Exam item: Hello, please tell me recorded concentration for this one: CCN(CC)CCNC(=O)c1cc(Cl)c(N)cc1OC [METOCLOPRAMIDE]
Marked response: 200 to 400 nM

###

Give IC50 for every item shown.
# study_system: Myeloperoxidase (Homo sapiens, UniProt P05164)
# Sequence (P05164 whole entry): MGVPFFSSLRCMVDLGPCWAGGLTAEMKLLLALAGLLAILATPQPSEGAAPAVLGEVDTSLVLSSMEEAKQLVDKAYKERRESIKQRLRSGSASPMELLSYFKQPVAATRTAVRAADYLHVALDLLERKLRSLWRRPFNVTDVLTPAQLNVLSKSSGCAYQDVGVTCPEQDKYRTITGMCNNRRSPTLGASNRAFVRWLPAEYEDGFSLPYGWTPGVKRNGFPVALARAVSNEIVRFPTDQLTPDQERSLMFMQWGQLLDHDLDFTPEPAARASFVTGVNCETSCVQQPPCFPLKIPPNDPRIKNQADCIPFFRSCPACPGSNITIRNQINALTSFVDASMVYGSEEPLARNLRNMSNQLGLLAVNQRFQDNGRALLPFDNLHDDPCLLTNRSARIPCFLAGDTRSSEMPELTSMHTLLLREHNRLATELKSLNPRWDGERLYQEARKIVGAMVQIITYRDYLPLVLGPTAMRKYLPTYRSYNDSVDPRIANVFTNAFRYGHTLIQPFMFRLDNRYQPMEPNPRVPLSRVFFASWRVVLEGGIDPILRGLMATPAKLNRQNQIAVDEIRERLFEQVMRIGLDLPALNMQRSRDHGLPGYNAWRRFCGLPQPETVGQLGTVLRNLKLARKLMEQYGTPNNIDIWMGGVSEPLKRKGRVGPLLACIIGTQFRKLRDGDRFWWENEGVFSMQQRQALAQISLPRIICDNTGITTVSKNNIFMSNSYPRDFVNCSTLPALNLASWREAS
# method_description: Inhibition of recombinant MPO (unknown origin) assessed as reduction in taurine chloramine production preincubated with enzyme and taurine followed by H2O2 addition measured after 5 mins
Numbers only; they are read as nM.

Exam item: Provide measured IC50 value, entry: Fc1ccc([C@@H]2CCNC[C@H]2COc2ccc3c(c2)OCO3)cc1
Marked response: 20

Exam item: Specify IC50 for N#CC1=C(N)Oc2cc(O)ccc2C1c1cccc(C(F)(F)F)c1 (stereo unspecified) and stop.
Marked response: 10100

Exam item: State, in one line, measured IC50 of Cc1nc(NC(=N)N)nc2cc(Br)ccc12
Marked response: 106

Exam item: Dear colleague, please send me the reported IC50 for Cc1cccc(Nc2ccccc2C(=O)O)c1C when you can.
Marked response: 980

Exam item: Supply recorded IC50 for Fc1ccc2[nH]c([C@@H]3CCN(CC4NC=CN4)C3)nc2c1 here.
Marked response: 50

Exam item: Look up IC50 of NCCCCc1c[nH]c2ccc(F)cc12 and report it.
Marked response: 8

Exam item: State its IC50 for this molecule: O[C@@H]1CN[C@H](c2nc(Cc3ccc(F)cc3Cl)no2)C1
Marked response: 4680

Exam item: Please give measured IC50 of the following entry: Cc1nc(N=C(N)N)nc2cc(Cl)ccc12
Marked response: 96

Exam item: // Input: Fc1ccc2oc([C@H]3CCNC3)nc2c1 . Output its IC50 only.
Marked response: 1740

Exam item: Please list IC50 recorded for the molecule O=c1c(O)c(-c2ccc(O)cc2)oc2cc(O)cc(O)c12
Marked response: 2240

Exam item: Complete the entry with IC50 for Cc1nc(N=C(N)N)nc2ccc(Br)cc12
Marked response: 756

Exam item: Consider the molecule CC(C)NCC(=O)c1nc2cc(F)ccc2[nH]1 and give its recorded IC50.
Marked response: 130

Exam item: Return IC50 for the following molecule: O=c1c(O)c(-c2ccc(O)c(O)c2)oc2cc(O)cc(O)c12
Marked response: 1150

Exam item: Retrieve IC50 measured for O=c1cc(-c2ccc(O)cc2)oc2cc(O)ccc12 and print it.
Marked response: 5790
